Conditions: in ethyl acetate, 298.15 K
Readout name: solubility (mole fraction)

Note to self: solubility (mole fraction) recorded for `O=[N+]([O-])c1ccc(S(=O)(=O)[O-])cc1.[Na+]` was 0.00012

* * *

Settings: in ethyl acetate, 303.15 K
Readout name: solubility (mole fraction)
When you answer, write just the number.

Note to self: solubility (mole fraction) recorded for `O=[N+]([O-])c1ccc(S(=O)(=O)[O-])cc1.[Na+]` was 0.000131

* * *

Conditions: in acetone, 308.15 K
Readout name: solubility (mole fraction)
When you answer, write just the number.

Note to self: solubility (mole fraction) recorded for `O=[N+]([O-])c1ccc(S(=O)(=O)[O-])cc1.[Na+]` was 0.0229
